- systemUnderTest: T1, human βI-tryptase monomer (Homo sapiens, UniProt Q15661)
- T1 construct: mature wild-type human βI-tryptase, Uniprot Q15661, Ile31-Pro275 (Ile16-Pro246 chymotrypsinogen numbering); also called monomeric βI-tryptase; β1-tryptase; source: Trichoplusia ni cells (baculovirus), secreted, purified (Ni-NTA, S200 SEC)
- T1 sequence (Q15661 31-275): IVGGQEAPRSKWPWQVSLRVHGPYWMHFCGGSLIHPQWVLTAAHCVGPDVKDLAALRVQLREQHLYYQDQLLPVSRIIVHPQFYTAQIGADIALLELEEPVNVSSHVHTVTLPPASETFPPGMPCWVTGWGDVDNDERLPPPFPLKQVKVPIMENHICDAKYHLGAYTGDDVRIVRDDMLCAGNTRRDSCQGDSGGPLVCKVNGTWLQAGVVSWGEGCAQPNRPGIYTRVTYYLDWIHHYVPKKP
- assay: SPR; Biacore T200; anti-tryptase IgG variant captured on a CM5 chip with anti-human IgG (Fc) antibody; threefold dilutions of human βI-tryptase monomer injected at 30 µL/min, 25 °C, 3-min association, 10-min dissociation; 1:1 binding model; representative single sensorgram sets
- assayConditions: both partners purified
measurementKind: Kd (nM)
Answers are plain numbers, in nM.

E104.v2 IgG1 hinge variant G1-H (antibody, V domains shown) VH: EVQLVESGPGLVKPSETLSLTCTVSRFSLIGYAITWIRQPPGKGLEWIGGISSAATTFYSSWAKSRVTISRDTSKNQVSLKLSSVTAADTAVYYCARDPRGYGAALDRLDLWGQGTLVTVSS VL: DIQMTQSPSSLSASVGDRVTITCQSIKSVYNNRLGWYQQKPGKAPKLLIYETSILTSGVPSRFSGSGSGTDFTLTISSLQPEDFATYYCAGGFDRSGDTTFGQGTKVEIK
0.68
humanized E104.v1 IgG1 (antibody, V domains shown) VH: EVQLVESGPGLVKPSETLSLTCTVSRFSLIGYAITWIRQPPGKGLEWIGGISSAATTFYSSWAKSRVTISVDTSKNQFSLKLSSVTAADTAVYYCARDPRGYGAALDRLDLWGQGTLVTVSS VL: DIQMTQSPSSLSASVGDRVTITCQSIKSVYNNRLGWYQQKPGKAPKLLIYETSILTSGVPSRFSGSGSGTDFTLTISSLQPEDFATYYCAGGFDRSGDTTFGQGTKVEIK
0.543
E104.v2 IgG1 hinge variant G1.G5 (antibody, V domains shown) VH: EVQLVESGPGLVKPSETLSLTCTVSRFSLIGYAITWIRQPPGKGLEWIGGISSAATTFYSSWAKSRVTISRDTSKNQVSLKLSSVTAADTAVYYCARDPRGYGAALDRLDLWGQGTLVTVSS VL: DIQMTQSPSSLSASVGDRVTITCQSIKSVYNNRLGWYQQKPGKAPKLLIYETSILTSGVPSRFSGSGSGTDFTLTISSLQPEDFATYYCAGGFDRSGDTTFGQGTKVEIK
0.643
E104.v2 IgG1 hinge variant G1-KTH (antibody, V domains shown) VH: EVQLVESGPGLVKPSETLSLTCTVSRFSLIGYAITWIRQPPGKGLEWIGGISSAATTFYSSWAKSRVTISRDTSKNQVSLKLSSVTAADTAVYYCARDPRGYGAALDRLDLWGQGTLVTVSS VL: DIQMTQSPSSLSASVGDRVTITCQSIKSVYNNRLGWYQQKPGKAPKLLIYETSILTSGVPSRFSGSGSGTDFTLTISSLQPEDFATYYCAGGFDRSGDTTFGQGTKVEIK
0.522

Continue with the next binder.
Item under review: E104.v2 IgG1 hinge variant G1-TH (antibody, V domains shown) VH: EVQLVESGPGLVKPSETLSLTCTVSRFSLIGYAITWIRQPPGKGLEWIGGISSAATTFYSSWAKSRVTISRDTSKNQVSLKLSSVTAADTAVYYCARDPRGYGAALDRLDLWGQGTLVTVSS VL: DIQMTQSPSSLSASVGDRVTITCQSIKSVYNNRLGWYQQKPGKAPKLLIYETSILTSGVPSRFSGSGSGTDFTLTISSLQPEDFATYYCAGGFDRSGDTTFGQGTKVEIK . Reported Kd?
0.56
